Data provenance: PubChem BioAssay (NCI)

test system: NCI-H23 lung; assay: NCI-60 one-dose screen, 48 h; details: 10 µM unless noted
This is part of a sample that, as a whole, favours compounds with a hit. Of some 83,000 tested, about 20% had one in any assay. Active and inactive are the calls of the source. How the source made its calls: active means growth percent below 10; inactive means the rest.
Write down one outcome, taken from yes = active, no = inactive

C=C1C(=O)O[C@H]2[C@H]1CC/C(COC(=O)NCc1c[nH]c3ccc(Cl)cc13)=C\CC[C@@]1(C)O[C@@H]21 ... no
Cc1cc2nc3c4cc(C=O)ccc4n(CCN(C)C)c3nc2cc1C ... no
CC1(C)c2[nH]c3ccccc3c2C[C@]2(C)[C@H]3C(=O)C=C4[C@@H]5C[C@@](C)(C(N)=O)CC[C@]5(C)CC[C@@]4(C)[C@]3(C)CC[C@@H]12 ... no

Query block: Kindly provide the recorded test outcome for the following compound: CCCCC/C=C/C(C)=C/C1CC(C)C/C=C/CCC(O)C(OC(N)=O)CCC(C)CC(O)C(C)C(=O)O1 (centres undefined)
Result block: no
